# System: microorganisms
# EXPERIMENTAL_PROTOCOL: Morphology, biofilm and growth disruption by peptides (Table 5)
# Format: cell-based
# Parameters: key: A: Peptide aggregates; B: Less hyphal formation; Clumps; Diffuse clumps and small polyps; F: Diffuse growth; H: Thin; I: Growth inhibition; Microcolony formation; Rippled; Small polyps; Thick; W: Halo formation on top, microlonies on bottom
# MEASUREMENT_SETUP: S. pneumoniae
Ends that are not written are not given here.
OBSERVATION_TYPE: Organism, effect (morphology, biofilm and growth disruption)

{"columns": ["SUBSTANCE", "EXPERIMENTAL_TARGET", "VALUE_OBSERVED"],
 "data": [
  ["PF-629 (chain 1 GLAAIATVFALY; chain 2 GLAAIATVFALY; Peptide with targeting and/or antimicrobial activity)", "microorganisms", "S. pneumoniae (M)"],
  ["PF-544 (FGEKQMRSWWKVHWFHP; Peptide with targeting and/or antimicrobial activity)", "microorganisms", "S. pneumoniae (M)"],
  ["FELVDWLETNLGKILKSKSA-NH2 [PF-522]", "microorganisms", "S. pneumoniae (H)"],
  ["PF-573 (EKKLIVKLIDSIGKSHEEIVGAG; Peptide with targeting and/or antimicrobial activity)", "microorganisms", "S. pneumoniae (C)"],
  ["PF-478 (HLFILKSHLKPFPPFRYTYD; Peptide with targeting and/or antimicrobial activity)", "microorganisms", "S. pneumoniae (C)"],
  ["VMQSLYVKPPLILVTKLAQQN [PF-511]", "microorganisms", "S. pneumoniae (H)"]
]}

---

# Test system: microorganisms
# EXPERIMENTAL_PROTOCOL: Morphology, biofilm and growth disruption by peptides (Table 5)
# Format: cell-based
# Parameters: key: A: Peptide aggregates; B: Less hyphal formation; Clumps; Diffuse clumps and small polyps; F: Diffuse growth; H: Thin; I: Growth inhibition; Microcolony formation; Rippled; Small polyps; Thick; W: Halo formation on top, microlonies on bottom
# MEASUREMENT_SETUP: S. epidermidis

{"columns": ["SUBSTANCE", "Organism, effect"],
 "data": [
  ["PF-124 (MADGQIAAIAKLHGVPVATRNIRHFQSFGVELINPWSG; Peptide with targeting and/or antimicrobial activity)", "S. epidermidis (C)"],
  ["PF-076 (LYQYELLSKEEYLKCTLIINQRRNEQK; Peptide with targeting and/or antimicrobial activity)", "S. epidermidis (S)"],
  ["PF-301 (GIVLIGLKLIPLLANVLN; Peptide with targeting and/or antimicrobial activity)", "S. epidermidis (C)"],
  ["PF-157 (HTAVVWLAGVSGCVALSHCEPA; Peptide with targeting and/or antimicrobial activity)", "S. epidermidis (M)"],
  ["PF-357 (MLTIIIGFIFWTMTLMLGYLIGEREGRKHE; Peptide with targeting and/or antimicrobial activity)", "S. epidermidis (M)"],
  ["PF-042 (LLLSYFRYTGALLQSLF; Peptide with targeting and/or antimicrobial activity)", "S. epidermidis (D)"],
  ["PF-067 (DLIVKVHICFVVKTASGYCYLNKREAQAAI; Peptide with targeting and/or antimicrobial activity)", "S. epidermidis (D)"],
  ["PF-068 (SHLINNFGLSVINPSTPICLNFSPVFNLLTVYGITCN; Peptide with targeting and/or antimicrobial activity)", "S. epidermidis (M)"],
  ["PF-318 (MGRHLWNPSYFVATVSENTEEQIRKYINNQKKQVK; Peptide with targeting and/or antimicrobial activity)", "S. epidermidis (C)"],
  ["PF-396 (LIYTILASLGVLTVLQAILGREPKAVKA; Peptide with targeting and/or antimicrobial activity)", "S. epidermidis (S)"],
  ["PF-292 (SFVSTTVRLIFEESKRYKF; Peptide with targeting and/or antimicrobial activity)", "S. epidermidis (C)"],
  ["PF-192 (VEEDEAPPPHY; Peptide with targeting and/or antimicrobial activity)", "S. epidermidis (D)"]
]}

---

# System: microorganisms
# EXPERIMENTAL_PROTOCOL: Morphology, biofilm and growth disruption by peptides (Table 5)
# Format: cell-based
# Parameters: key: A: Peptide aggregates; B: Less hyphal formation; Clumps; Diffuse clumps and small polyps; F: Diffuse growth; H: Thin; I: Growth inhibition; Microcolony formation; Rippled; Small polyps; Thick; W: Halo formation on top, microlonies on bottom
# MEASUREMENT_SETUP: S. pneumoniae
OBSERVATION_TYPE: Organism, effect (morphology, biofilm and growth disruption)

{"columns": ["SUBSTANCE", "EXPERIMENTAL_TARGET", "VALUE_OBSERVED"],
 "data": [
  ["PF-700 (chain 1 LNWPFTGR; chain 2 LNWPFTGR; Peptide with targeting and/or antimicrobial activity)", "microorganisms", "S. pneumoniae (C)"],
  ["PF-449 (MPTTKSKQKGWTNTKKASNTQ; Peptide with targeting and/or antimicrobial activity)", "microorganisms", "S. pneumoniae (H)"],
  ["PF-433 (MRKEFHNVLSSGQLLADKRPARDYNRK; Peptide with targeting and/or antimicrobial activity)", "microorganisms", "S. pneumoniae (H)"],
  ["MQIFYIKTKIFLSFFLFLLIFSQCFYKIEE [PF-442]", "microorganisms", "S. pneumoniae (C)"]
]}

---

# Test system: bacteria
# EXPERIMENTAL_PROTOCOL: Binding of targeting peptides to microorganisms (Table 3)
# MEASUREMENT_SETUP: microorganism the targeting peptide binds; binding in aqueous buffers that varied with peptide solubility, preferably 1x PBS

{"columns": ["SUBSTANCE", "EXPERIMENTAL_TARGET", "Target(s)"],
 "data": [
  ["PF-038 (MAYKDEGKETKFAVKGYKD; Peptide with targeting and/or antimicrobial activity)", "bacteria", "M. luteus"],
  ["PF-034 (EPKKKHFPKMESASSEP; Peptide with targeting and/or antimicrobial activity)", "bacteria", "M. luteus"],
  ["1T-193 (LMIFDKHANLKYKYGNRSFGVEAIM; Peptide with targeting and/or antimicrobial activity) [Peptide 1T-193]", "bacteria", "S. sanguinis"],
  ["1T-286 (LGFFNNKADLVKADTERDNRMSSLKIKDL; Peptide with targeting and/or antimicrobial activity) [Peptide 1T-286]", "bacteria", "S. sanguinis"],
  ["1T-188 (HRKDVYKK; Peptide with targeting and/or antimicrobial activity) [Peptide 1T-188]", "bacteria", "S. sanguinis"],
  ["1T-256 (KGKSLMPLLKQINQWGKLYL; Peptide with targeting and/or antimicrobial activity) [Peptide 1T-256]", "bacteria", "S. sanguinis"],
  ["1T-219 (RNINVSATFITEKSLV; Peptide with targeting and/or antimicrobial activity) [Peptide 1T-219]", "bacteria", "S. sanguinis"],
  ["1T-215 (VCFKDISVFLSPFRGQEVLFCGKAKHSLIYVIGT; Peptide with targeting and/or antimicrobial activity) [Peptide 1T-215]", "bacteria", "S. sanguinis"],
  ["TT-310 (TKLKKNNKLLSAKKENTLHTKDK; Peptide with targeting and/or antimicrobial activity)", "bacteria", "F. nucleatum"],
  ["1T-266 (RAGTWLVVDEIR; Peptide with targeting and/or antimicrobial activity) [Peptide 1T-266]", "bacteria", "S. sanguinis"],
  ["TT-305 (ARNALNMRDVPVDAAIIGIIDGMDEE; Peptide with targeting and/or antimicrobial activity)", "bacteria", "F. nucleatum"]
]}

---

# Tested on: microorganisms
# EXPERIMENTAL_PROTOCOL: Morphology, biofilm and growth disruption by peptides (Table 5)
# Format: cell-based
# Design: key: A: Peptide aggregates; B: Less hyphal formation; Clumps; Diffuse clumps and small polyps; F: Diffuse growth; H: Thin; I: Growth inhibition; Microcolony formation; Rippled; Small polyps; Thick; W: Halo formation on top, microlonies on bottom
# MEASUREMENT_SETUP: S. epidermidis

{"columns": ["SUBSTANCE", "EXPERIMENTAL_TARGET", "Organism, effect"],
 "data": [
  ["PF-032 (RIVVPAHQSNMASTPNLSITP; Peptide with targeting and/or antimicrobial activity)", "microorganisms", "S. epidermidis (S)"],
  ["PF-376 (MTVFEALMLAIAFATLIVKISNKNDKK; Peptide with targeting and/or antimicrobial activity)", "microorganisms", "S. epidermidis (C)"],
  ["PF-350 (LAVILRAIVY; Peptide with targeting and/or antimicrobial activity)", "microorganisms", "S. epidermidis (C)"],
  ["PF-203 (SWKCHHLAI; Peptide with targeting and/or antimicrobial activity)", "microorganisms", "S. epidermidis (A)"],
  ["PF-407 (KPKNKKEKTVISYEKLLSMY; Peptide with targeting and/or antimicrobial activity)", "microorganisms", "S. epidermidis (M)"],
  ["PF-024 (DLRKAK; Peptide with targeting and/or antimicrobial activity)", "microorganisms", "S. epidermidis (D)"],
  ["SIGSMIGMYSFRHKTKHIKFTFGIPFILFLQFLLVYFYILK [PF-319]", "microorganisms", "S. epidermidis (C)"],
  ["PF-176 (RLTSNQFLTRITPFVFAQH; Peptide with targeting and/or antimicrobial activity)", "microorganisms", "S. epidermidis (C)"],
  ["PF-335 (AAYPIEDWSDWYEDFFIMLSNI; Peptide with targeting and/or antimicrobial activity)", "microorganisms", "S. epidermidis (C)"],
  ["PF-021 (FSLNFSKQKYVTVN; Peptide with targeting and/or antimicrobial activity)", "microorganisms", "S. epidermidis (A)"],
  ["ALDCSEQSVILWYETILDKIVGVIK [PF-028]", "microorganisms", "S. epidermidis (M)"],
  ["PF-140 (FHRRVIRASEWALTTRSFSTPLRSAAR; Peptide with targeting and/or antimicrobial activity)", "microorganisms", "S. epidermidis (D)"],
  ["PF-395 (YCVPLGNMGNMNNKIW; Peptide with targeting and/or antimicrobial activity)", "microorganisms", "S. epidermidis (C)"],
  ["PF-408 (YCVPLGNMGNMNNKIW; Peptide with targeting and/or antimicrobial activity)", "microorganisms", "S. epidermidis (M)"],
  ["AL C SVIKAIEL GIINVHL Q [PF-366]", "microorganisms", "S. epidermidis (R)"],
  ["PF-001 (chain 1 MNNWIIVAQLSVTVINEIIDIMKEKQKGGK; chain 2 MNNWIIVAQLSVTVINEIIDIMKEKQKGGK; Peptide with targeting and/or antimicrobial activity)", "microorganisms", "S. epidermidis (C)"],
  ["PF-342 (AFSGVYKTLIVYTRRK; Peptide with targeting and/or antimicrobial activity)", "microorganisms", "S. epidermidis (C)"],
  ["PF-389 (GLQFKEIAEEFHITTTALQQWHKDNGYPIYNKNNRK; Peptide with targeting and/or antimicrobial activity)", "microorganisms", "S. epidermidis (R)"],
  ["PF-374 (HLFFVKGMFILCQKNQINDE; Peptide with targeting and/or antimicrobial activity)", "microorganisms", "S. epidermidis (C)"],
  ["PF-383 (WSEIEINTKQSN; Peptide with targeting and/or antimicrobial activity)", "microorganisms", "S. epidermidis (C)"],
  ["PF-381 (QGANPCQQVGFTVNDPDCRLAKTV; Peptide with targeting and/or antimicrobial activity)", "microorganisms", "S. epidermidis (C)"],
  ["PF-360 (MEQKVKVIFVPRSKPDNQLKTFVSAVLFKA; Peptide with targeting and/or antimicrobial activity)", "microorganisms", "S. epidermidis (S)"],
  ["PF-041 (ELLVILPGFI; Peptide with targeting and/or antimicrobial activity)", "microorganisms", "S. epidermidis (R)"],
  ["PF-056 (AEQLFGKQKQRGVDLFLNRLTIILSILFFVLMICISYLGM; Peptide with targeting and/or antimicrobial activity)", "microorganisms", "S. epidermidis (D)"],
  ["PF-380 (KKIIPLITLFVVTLVG; Peptide with targeting and/or antimicrobial activity)", "microorganisms", "S. epidermidis (C)"],
  ["PF-057 (TMIVISIPRFEEYMKARHKKWM; Peptide with targeting and/or antimicrobial activity)", "microorganisms", "S. epidermidis (D)"],
  ["PF-025 (LLIIFRLWLELKWKNKK; Peptide with targeting and/or antimicrobial activity)", "microorganisms", "S. epidermidis (S)"],
  ["PF-010 (chain 1 MDIDVNKLLQAFVYFKSFEKLRHNNS; chain 2 MDIDVNKLLQAFVYFKSFEKLRHNNS; Peptide with targeting and/or antimicrobial activity)", "microorganisms", "S. epidermidis (S)"]
]}
